- Test system: rhIFNγ stimulated STAT-3 phosphorylation in the A549 human epithelial cell line
- experiment: A549 Cell Assay: Inhibition of pSTAT3
- Type: cell-based
- recordedConditions: Homo sapiens; A549 cells
- Excerpt: A549 Cell Assay: Inhibition of pSTAT3 An assay measuring the efficacy of JAK inhibitors on the functional response of recombinant human interferon γ (rhIFNγ) stimulated STAT-3 phosphorylation in the A549 human epithelial cell line. […] Data were collected and transformed into percent inhibition and calculated using the following formula: […]
Recorded IC50 for the following compounds
Numbers only; they are read as nM.

compound=Cc1ccc(S(=O)(=O)N(C)c2ccccc2CNc2nc(-c3cc(F)c(O)cc3CC(F)(F)F)cc3[nH]nc(C(N)=O)c23)cn1 value=46.2
compound=CN(c1ccc(O)cc1CNc1nc(-c2cc(F)c(O)cc2CC(F)(F)F)nc2[nH]nc(C(=O)Nc3ccc(NCCO)nc3)c12)S(C)(=O)=O value=2470
compound=CCN(c1ccc(O)cc1CNc1nc(-c2cc(F)c(O)cc2CC(F)(F)F)cc2[nH]nc(C(=O)NC)c12)S(=O)(=O)c1ccccc1 value=433

Quick one: IC50 for CCc1cc(O)c(F)cc1-c1cc2[nH]nc(C(=O)NC)c2c(NCc2cc(F)ccc2N(C)S(C)(=O)=O)n1 ?
5.7

###

// endpoint pIC50 / system JAK2 (Homo sapiens (Human))
Remember, pIC50 is on a log scale: it is -log10 of the molar concentration.

The examples below pair each entry with its known result.
compound="CNC(=O)c1n[nH]c2cc(-c3cc(F)c(O)cc3CC(F)(F)F)nc(NCc3cc(O)ccc3N(C)S(C)(=O)=O)c12 [Example 50]" measurementkind=pIC50 value=7.97
compound="CNC(=O)c1n[nH]c2cc(-c3cc(F)c(O)cc3CC(F)(F)F)nc(NCc3ccc(O)cc3N(C)S(C)(=O)=O)c12 [Example 33]" measurementkind=pIC50 value=7.60
compound="CNC(=O)c1n[nH]c2cc(-c3cc(F)c(O)cc3CC(F)(F)F)nc(NCc3cc(O)ccc3N(C)S(=O)(=O)c3ccccc3)c12 [Example 35]" measurementkind=pIC50 value=6.60

API: the following record is the query input.
Provide the documented pIC50 with JAK2 (Homo sapiens (Human)) as the system for CNC(=O)c1n[nH]c2cc(-c3cc(F)c(O)cc3CC(F)(F)F)nc(NCc3ccccc3N(CCO)S(C)(=O)=O)c12 [Example 24]
Sequence (O60674 whole entry): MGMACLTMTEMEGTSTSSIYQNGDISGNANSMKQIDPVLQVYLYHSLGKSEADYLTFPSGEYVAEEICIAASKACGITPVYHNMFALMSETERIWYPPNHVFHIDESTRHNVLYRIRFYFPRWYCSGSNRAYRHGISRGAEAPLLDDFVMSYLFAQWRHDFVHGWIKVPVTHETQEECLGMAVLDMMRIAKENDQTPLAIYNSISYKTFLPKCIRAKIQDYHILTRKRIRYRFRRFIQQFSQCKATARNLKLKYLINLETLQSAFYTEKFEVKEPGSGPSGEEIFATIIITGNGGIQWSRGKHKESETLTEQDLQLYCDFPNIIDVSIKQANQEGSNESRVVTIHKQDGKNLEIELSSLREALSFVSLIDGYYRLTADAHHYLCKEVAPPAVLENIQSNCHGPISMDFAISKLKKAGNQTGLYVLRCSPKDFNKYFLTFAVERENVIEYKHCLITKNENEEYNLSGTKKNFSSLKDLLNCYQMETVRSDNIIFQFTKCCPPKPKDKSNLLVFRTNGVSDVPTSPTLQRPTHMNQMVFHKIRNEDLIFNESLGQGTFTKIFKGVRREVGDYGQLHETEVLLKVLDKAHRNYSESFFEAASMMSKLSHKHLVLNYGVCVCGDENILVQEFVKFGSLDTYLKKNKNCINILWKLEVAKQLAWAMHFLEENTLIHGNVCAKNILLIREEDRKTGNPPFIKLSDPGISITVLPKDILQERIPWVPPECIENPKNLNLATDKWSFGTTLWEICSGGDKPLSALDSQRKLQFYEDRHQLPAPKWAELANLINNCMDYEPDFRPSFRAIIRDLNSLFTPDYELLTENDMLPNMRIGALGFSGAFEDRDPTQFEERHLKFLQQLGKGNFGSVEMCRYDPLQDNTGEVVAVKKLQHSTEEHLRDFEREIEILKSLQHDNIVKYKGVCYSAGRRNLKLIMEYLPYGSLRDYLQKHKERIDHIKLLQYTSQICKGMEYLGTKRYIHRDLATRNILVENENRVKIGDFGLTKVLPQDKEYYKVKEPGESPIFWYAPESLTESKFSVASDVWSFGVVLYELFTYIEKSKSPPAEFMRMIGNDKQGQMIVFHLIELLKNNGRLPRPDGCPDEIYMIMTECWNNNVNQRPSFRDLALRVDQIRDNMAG
7.78

###

Recorded IC50 for the following molecules
- System: rhIFNγ stimulated STAT-3 phosphorylation in the A549 human epithelial cell line
- experiment: A549 Cell Assay: Inhibition of pSTAT3
- Assay type: cell-based
- recordedConditions: Homo sapiens; A549 cells
Numbers only; they are read as nM.

molecule="CCc1cc(O)c(F)cc1-c1cc2[nH]nc(-c3ncc[nH]3)c2c(NCc2ccccc2N(C)S(C)(=O)=O)n1 [Example 157]" measurementkind=IC50 value=26.2
molecule="Cc1cnc(N(C)S(C)(=O)=O)c(CNc2nc(-c3cc(F)c(O)cc3CC(F)(F)F)cc3[nH]nc(C(N)=O)c23)c1 [Example 86]" measurementkind=IC50 value=425
molecule="CNC(=O)c1n[nH]c2cc(-c3cc(F)c(O)cc3CC(F)(F)F)nc(NCc3cc(F)ccc3N(C)S(C)(=O)=O)c12 [Example 14]" measurementkind=IC50 value=20.7
molecule="CCc1cc(O)c(F)cc1-c1cc2[nH]nc(C(=O)NC)c2c(NCc2ccccc2N(C)S(=O)(=O)c2ccccc2)n1 [Example 22]" measurementkind=IC50 value=52.8

API: the following record is the query input.
Quick one: IC50 for CN(c1ccccc1CNc1nc(-c2cc(F)c(O)cc2CC(F)(F)F)cc2[nH]nc(C(N)=O)c12)S(=O)(=O)c1ccccc1 [Example 26] ?
124
